Test system: UACC-257 melanoma
TEST_NAME: NCI-60 one-dose screen, 48 h
REPORTED_CONDITIONS: 10 µM unless noted
About 83,000 compounds went through this panel and 20% of them were active in at least one assay; those are over-represented in the sample as a whole. Active and inactive are the calls of the source. Rule for the calls: active = growth percent below 10; inactive = the rest.
Return exactly one item of TRUE (active), FALSE (inactive)

Consider the following illustrative entries.
- MOLECULE: "C/C=C(/C)C(=O)OC1C=C(CO)C(=O)C(OC(=O)C(C)(O)C(C)Cl)C1C(C)C (stereo not given)"
  CAT: "TRUE"
- MOLECULE: "O=C(Oc1ccccc1)c1ccccc1Cl"
  CAT: "FALSE"
- MOLECULE: "COc1cc(NC(C)CCCN)c2nccc(C)c2c1OC (stereo not given)"
  CAT: "FALSE"
- MOLECULE: "c1ccc2[nH]c(-c3ccc(OCCCCCOc4ccc(-c5nc6ccccc6[nH]5)cc4)cc3)nc2c1"
  CAT: "FALSE"

Next, consider the following molecule.
### Prompt Please share the test call associated with COC(=O)c1ccc2[nH]c(O)c(C(=Nc3ccc(N(C)C(=O)CN4CCN(C)CC4)cc3)c3ccc([N+](=O)[O-])cc3)c2c1 .
### Response FALSE

====

Test system: SNB-19 CNS
TEST_NAME: NCI-60 one-dose screen, 48 h (100 = growth as untreated, 0 = no growth, -100 = all killed)
REPORTED_CONDITIONS: 10 µM unless noted
Procedure: Growth inhibition of the SNB-19 human tumor cell line is measured as a screen for anti-cancer activity. Cells are grown in 96 well plates and exposed to the test compound for 48 hours. Compounds are tested at a single concentration, which is 10^-5 M for most compounds. The reported endpoint is percent growth (GI% or GIPRCNT), where numbers from 0 - 100% represent growth inhibition, and numbers from -100% - 0 represent cell death. For example, a value of 40 represents 60% growth inhibition. […]
The panel holds about 83,000 compounds, 20% with a hit somewhere; the sample as a whole holds those more often. Active and inactive are the calls of the source. The calls were made as follows: active = growth percent below 10; inactive = the rest.
PROPERTY: growth

- COMPOUND: "Nc1nc2c(c3cnccc13)C(c1cccc(Cl)c1)Cc1cnccc1-2 (stereo not drawn)"
  growth: "29.2% (inactive)"

### Prompt Query: growth; subject: O=C1C(Br)=CC2C1C1C3CCC3C2(Br)C12OCCO2 (stereo not drawn)
### Response 81% (inactive)

### Prompt Query: growth; subject: CCCC(=O)NNc1[nH]c(-c2ccc(OC)cc2)cc1C(=O)OCC
### Response 108% (inactive)

### Prompt Query: growth; subject: CC1(C)N=C(N)N=C(N)N1c1cccc(CCCCOc2ccccc2)c1
### Response 32.4% (inactive)

### Prompt Query: growth; subject: CC1CCCCC[N+]12CCCC2 (stereo not drawn)
### Response 106% (inactive)

### Prompt Query: growth; subject: O=C1OC(c2ccc(-c3ccccc3)cc2)=C/C1=C/c1c2ccccc2cc2ccccc12
### Response 94.1% (inactive)

### Prompt Query: growth; subject: CC(=O)c1nn(-c2ccc(C)cc2)cc1C(=O)c1cc2c(ccc3ccccc32)oc1=O
### Response 92.6% (inactive)

====

System: U251 CNS
TEST_NAME: NCI-60 one-dose screen, 48 h (100 = growth as untreated, 0 = no growth, -100 = all killed)
REPORTED_CONDITIONS: 10 µM unless noted
The panel holds about 83,000 compounds, 20% with a hit somewhere; the sample as a whole holds those more often.
Assign T to entries whose growth meets or exceeds 60%; assign F to the rest.

Consider the following illustrative entries.
- COMPOUND: "O=CN/N=C/c1ccc(Cl)c([N+](=O)[O-])c1"
  CAT: "F"
- COMPOUND: "N#Cc1ccc(OCc2nc(N)nc(N)c2-c2ccc(Cl)c(Cl)c2)cc1"
  CAT: "F"
- COMPOUND: "Cc1ccc(S(=O)(=O)NC(CCC(=O)Nc2ccccc2)C(=O)Nc2ccccc2)cc1 (stereo not drawn)"
  CAT: "F"
- COMPOUND: "CC(=O)CCS(=O)c1ccccc1 (stereo not drawn)"
  CAT: "T"
- COMPOUND: "O=S(=O)(Cc1cccc2c(CS(=O)(=O)c3ccc(Cl)cc3)cccc12)c1ccc(Cl)cc1"
  CAT: "T"

Next, consider the following compound.
### Prompt # bool: growth of CCCCCCCCCCCCOC(=O)/C=C\C(=O)NC(N)=O >= 60%
### Response T

====

System: SF-295 CNS
TEST_NAME: NCI-60 one-dose screen, 48 h
REPORTED_CONDITIONS: 10 µM unless noted
About 83,000 compounds went through this panel and 20% of them were active in at least one assay; those are over-represented in the sample as a whole. Calls of active or inactive are those of the source. Rule for the calls: active = growth percent below 10; inactive = the rest.
Return exactly one item of active, inactive

Consider the following illustrative entries.
- COMPOUND: "CC/C(=N\\Nc1nc2ccccc2n1C)c1ccccn1"
  CAT: "active"
- COMPOUND: "Oc1ccccc1/C=N/N=C/c1c(O)ccc2ccccc12"
  CAT: "inactive"
- COMPOUND: "NNC(=O)CNc1ccc2ccccc2c1"
  CAT: "inactive"
- COMPOUND: "COc1cc(NC(C)CCCN)c2nccc(C)c2c1OC (stereo not drawn)"
  CAT: "inactive"
- COMPOUND: "O=C(Nc1ccc(-n2cc(-c3ccncc3)c(-c3ccc(Cl)c(O)c3)n2)cc1)c1cc(Cl)cc(Cl)c1"
  CAT: "active"
- COMPOUND: "N=C(N)c1ccc(-c2ccc(-c3ccc(F)cc3)s2)cc1"
  CAT: "active"
- COMPOUND: "Clc1ccc(I)c2ccccc12"
  CAT: "inactive"
- COMPOUND: "O=C(Oc1ccccc1)c1ccccc1Cl"
  CAT: "inactive"

### Prompt Please share the test call associated with CCCCCCCCCCCCCCCCNC(=O)Nc1ccc(C)c(NC(=O)NCCCCCCCCCCCCCCCC)c1 .
### Response inactive

### Prompt Please share the test call associated with c1ccc(C(=NNc2nc3ccccc3o2)c2ccccn2)nc1 .
### Response active

### Prompt Please share the test call associated with COc1ccccc1Nc1nnc(COc2ccc(CNC(=O)CCCC/C=C/C(C)C)cc2OC)o1 .
### Response inactive

### Prompt Please share the test call associated with C/C(=C\c1ccc2ccccc2c1)[N+](=O)[O-] .
### Response inactive

### Prompt Please share the test call associated with [N-]=[N+]=Nc1ncc(-c2ccc(C(F)(F)F)cc2)c(NC2CCCCCC2)n1 .
### Response active

====

System: HCT-116 colon
TEST_NAME: NCI-60 one-dose screen, 48 h
REPORTED_CONDITIONS: 10 µM unless noted
About 83,000 compounds went through this panel and 20% of them were active in at least one assay; those are over-represented in the sample as a whole. Calls of active or inactive are those of the source. How the source made its calls: active means growth percent below 10; inactive means the rest.
Return exactly one item of active, inactive

Consider the following illustrative entries.
- COMPOUND: "O=C(/C(Br)=C/c1ccccc1)c1ccccc1"
  CAT: "active"
- COMPOUND: "CCCNC(=O)Oc1ccc(/C(=C(/C)Cc2ccc(OC)cc2)c2ccc(OCCN3CCCCC3)cc2)cc1"
  CAT: "inactive"
- COMPOUND: "Br/C(=N\\Nc1nn[nH]n1)c1ccccc1"
  CAT: "inactive"
- COMPOUND: "C/C=C(/C)C(=O)OC1C=C(CO)C(=O)C(OC(=O)/C(C)=C\\C)C1C(C)C (stereo not given)"
  CAT: "active"

Next, consider the following compound.
### Prompt Please share the test call associated with C=CC1CN2CCC1CC2C(O)c1ccnc2ccc(OC)cc12 (stereo not given) .
### Response inactive

====

A collection of compounds and their measured growth
Test system: OVCAR-3 ovarian
TEST_NAME: NCI-60 one-dose screen, 48 h (100 = growth as untreated, 0 = no growth, -100 = all killed)
REPORTED_CONDITIONS: 10 µM unless noted
Compounds without any hit were thinned out: in the full panel of roughly 83,000, 20% have a hit.
Just the number please, in %, no unit attached.

Consider the following illustrative entries.
- COMPOUND: "O=C1C(Br)=CC2C1C1C3CCC3C2(Br)C12OCCO2 (centres undefined)"
  growth (%): 12.5
- COMPOUND: "CN(C)CCOC(=O)C(C)(C)C"
  growth (%): 111
- COMPOUND: "COc1ccc(C(=O)c2no[n+]([O-])c2C(=O)c2ccc(OC)cc2)cc1"
  growth (%): -100

### Prompt Query: growth; subject: Cc1cc2c(-c3nc4ccccc4n3C)c(O)c(O)cc2c(O)c1-c1c(C)cc2c(-c3nc4ccccc4n3C)c(O)c(O)cc2c1O
### Response 71.3

### Prompt Query: growth; subject: COc1ccc(C2CC(=O)c3c(O)cc(OC4OC(COC5OC(C)C(O)C(O)C5O)C(O)C(O)C4O)cc3O2)cc1O (centres undefined)
### Response 131

### Prompt Query: growth; subject: S=C(N/N=C/c1cc(Cl)cc(Cl)c1)NC12CC3CC(CC(C3)C1)C2
### Response 58.2

### Prompt Query: growth; subject: CC(C)(CNC1CCCCC1)OC(=O)c1ccccc1
### Response 102

### Prompt Query: growth; subject: Oc1ccc([S+](c2ccc(O)cc2)c2ccc(O)cc2)cc1
### Response 114

### Prompt Query: growth; subject: C=CCNCCC#N
### Response 114

### Prompt Query: growth; subject: O=C(c1ccccc1)c1ccccc1-c1ccccc1
### Response 13.3
